Biological target: Voltage-gated inwardly rectifying potassium channel KCNH2 (Homo sapiens)
Assay: hERG protection against dofetilide inhibition, confirmation, cell-based, thallium flux, duplicate retest, dofetilide IC70 (AID 1835)
Details: hERG cell line, FluxOR thallium flux, dofetilide-blocked; at 10 µM
The whole screen tested about 2,400 compounds, of which about 750 (31%) were called active.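 The calls were made as follows: active = median signal gain over dofetilide-blocked control wells reaching their mean plus 3 SD, so readout 1 at least 0; inactive = the rest.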 This is one part of the list.
Tick one outcome: active, inactive

Use the examples below as a reference point.
In [3]: df
Out[3]:
                                   compound  class_name
0  COc1ccc(C(C(=O)NC(C)(C)C)N(C(=O)CCC(=O)Nc2cc(C)on2)c2cccc(F)c2)cc1 (stereo not drawn)    inactive
1  COCCn1cnc2c1c(=O)n(CC#N)c(=O)n2Cc1ccccc1    inactive
2         ON/C=N/C(=S)Nc1ncc(C(F)(F)F)cc1Cl      active

Recorded call for `N#CC(=C1SC=CS1)c1nc(-c2ccccc2)cs1` ?
inactive

Recorded call for `Cc1ccccc1Cn1c(O)c(N=NC(=S)Nc2ccccc2F)c2ccccc21` ?
active

Recorded call for `CC1CCN(C(=O)CSc2nnc(CNC(=O)c3ccco3)o2)CC1` ?
inactive
